Reported values of %Inh for individual entries
- Test system: JAK1(JH1domain-catalytic)
- experimental_conditions: concentration: 1 μM,replicates: in singlicate; n = 1;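 also: KINOMEscan kinase panel screen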

{"compound": "CCN(CC)CCOc1ccc(Nc2ncc3cc(-c4c(Cl)cccc4Cl)c(=O)n(C)c3n2)cc1", "unit_symbol": "%", "%Inh": 92}
{"compound": "CNC(=O)c1ccccc1Sc1ccc2c(/C=C/c3ccccn3)n[nH]c2c1", "unit_symbol": "%", "%Inh": 0}
{"compound": "Cc1cc(C(=O)Nc2ccc(Oc3ccc4nc(NC(=O)C5CC5)cn4n3)cc2)nn1-c1ccccc1", "unit_symbol": "%", "%Inh": 0}
{"compound": "Nc1nc(Nc2ccccc2)cc(-c2ccc3c(N)n[nH]c3c2)n1", "unit_symbol": "%", "%Inh": 0}
{"compound": "CCN(CC)CCCCNc1ncc2cc(-c3c(Cl)cccc3Cl)c(NC(=O)NC(C)(C)C)nc2n1", "unit_symbol": "%", "%Inh": 0}
{"compound": "Cl.Cl.Nc1nc(-c2ccc3c(N)n[nH]c3c2)cc(N2CCCC(NC(=O)c3ccccc3)C2)n1 (centres unmarked)", "unit_symbol": "%", "%Inh": 10}
{"compound": "O=C(NCCCN1CCOC1=O)c1cnc(NCc2cc(Cl)ccc2Cl)nc1NC1CCCC1", "unit_symbol": "%", "%Inh": 0}
{"compound": "O=C(NCCNc1ccnc(NCc2ccc(F)cc2)n1)c1cc2ccccc2s1", "unit_symbol": "%", "%Inh": 0}

---

- Tested on: WEE2
- experimental_conditions: concentration: 1 μM,replicates: in singlicate; n = 1

{"compound": "C[C@@H]1CCN(C(=O)CC#N)C[C@@H]1N(C)c1ncnc2[nH]ccc12", "%Inh [%]": 2}
{"compound": "Cl.Cl.NC[C@H](CC1CCCCC1)NC(=O)c1cc(Br)c(-c2ccnc3[nH]ccc23)s1 [GSK1581427]", "%Inh [%]": 10}
{"compound": "O=C(NCCCN1CCOC1=O)c1cnc(NCc2cc(Cl)ccc2Cl)nc1NC1CCCC1", "%Inh [%]": 0}
{"compound": "CCn1c(-c2nonc2N)nc2c(C#CC(C)(C)O)nc(OCCN)cc21.Cl.Cl [GSK902056]", "%Inh [%]": 15}
{"compound": "Cl.Cl.Nc1nc(-c2ccc3c(N)n[nH]c3c2)cc(N2CCCC(NC(=O)c3ccccc3)C2)n1 (stereo not shown) [GSK2286775]", "%Inh [%]": 0}
{"compound": "Cc1occc1-c1nc(N)c(OC[C@@H](N)Cc2c[nH]c3ccccc23)cc1-c1cc2c(C)n[nH]c2cn1 [GSK1660450]", "%Inh [%]": 15}
{"compound": "C=CC(=O)Nc1cc2c(Nc3ccc(F)c(Cl)c3)ncnc2cc1OCCCN1CCOCC1 [GW781483]", "%Inh [%]": 20}

---

- Test system: NDR2
- experimental_conditions: concentration: 1 μM,replicates: in singlicate; n = 1

{"item_smiles": "CCn1c(-c2nonc2N)nc2c(C#CC(C)(C)O)nc(OCCN)cc21.Cl.Cl", "study_target": "NDR2", "%Inh": "16%"}
{"item_smiles": "Cc1cc2cn[nH]c2cc1-c1cccc2c(N)c(C(N)=O)nnc12", "study_target": "NDR2", "%Inh": "0%"}
{"item_smiles": "CNC(=O)c1ccccc1Sc1ccc2c(/C=C/c3ccccn3)n[nH]c2c1", "study_target": "NDR2", "%Inh": "0%"}
{"item_smiles": "Cc1occc1-c1nc(N)c(OC[C@@H](N)Cc2c[nH]c3ccccc23)cc1-c1cc2c(C)n[nH]c2cn1", "study_target": "NDR2", "%Inh": "0%"}
{"item_smiles": "CCN(CC)CCCCNc1ncc2cc(-c3c(Cl)cccc3Cl)c(NC(=O)NC(C)(C)C)nc2n1", "study_target": "NDR2", "%Inh": "0%"}
{"item_smiles": "C[C@@H]1CCN(C(=O)CC#N)C[C@@H]1N(C)c1ncnc2[nH]ccc12", "study_target": "NDR2", "%Inh": "12%"}
{"item_smiles": "O=C(NCCNc1ccnc(NCc2ccc(F)cc2)n1)c1cc2ccccc2s1", "study_target": "NDR2", "%Inh": "0%"}
{"item_smiles": "CC(C)N1C(=O)Cc2cc(Nc3ncc(C(F)(F)F)c(NCc4cccc(S(C)(=O)=O)c4)n3)ccc21", "study_target": "NDR2", "%Inh": "0%"}

Source listed as paper PMC5540273.
